experiment: Oral bioavailability in Han Wistar rat at 30 mg/kg administered via gavage using crystalline compound by LC-MS/MS analysis; assay type: ADME, organism-based; settings: in vivo

# smiles.entry, bioavailability
rows = [
    ("CCOC(=O)N1CCC2(CC1)C[C@H](NC(=O)c1cccc3cn[nH]c13)c1cc(Br)ccc1O2", "6%"),
]

----------
experiment: Oral bioavailability in Han Wistar rat at 5 mg/kg administered via gavage using crystalline compound by LC-MS/MS analysis; type: ADME, organism-based; details: in vivo

# smiles.entry, bioavailability [%]
rows = [
    ("CCOC(=O)N1CCC2(CC1)C[C@H](NC(=O)c1cccc3cn[nH]c13)c1cc(Br)ccc1O2", 11),
]

----------
assay: Solubility of the compound in fasted state simulated intestinal fluid using crystalline compound; assay type: physicochemical

# smiles.entry, solubility thermodynamic
data = [
    ("CCOC(=O)N1CCC2(CC1)C[C@H](NC(=O)c1cccc3cn[nH]c13)c1cc(Br)ccc1O2", "18.4 µg/mL"),
    ("CCOC(=O)N1CCC2(CC1)C[C@H](NC(=O)c1cccc3cn(COP(=O)(O)O)nc13)c1cc(Br)ccc1O2.NC(CO)(CO)CO.NC(CO)(CO)CO", "> 1000 µg/mL"),
]

----------
experiment: Clearance in rat; type: ADME; details: in vivo

# smiles.entry, unit.string, clearance
rows = [
    ("CCOC(=O)N1CCC2(CC1)C[C@H](NC(=O)c1cccc3cn[nH]c13)c1cc(Br)ccc1O2", "mL/min/kg", 11.7),
]

----------
assay: Oral bioavailability in Han Wistar rat at 100 mg/kg administered via gavage using crystalline compound by LC-MS/MS analysis; assay type: ADME, organism-based; conditions: in vivo

# smiles.entry, unit.string, bioavailability
measured = [
    ("CCOC(=O)N1CCC2(CC1)C[C@H](NC(=O)c1cccc3cn[nH]c13)c1cc(Br)ccc1O2", "%", 3),
]

----------
assay: Oral bioavailability in Beagle dog at 30 mg/kg administered via gavage using crystalline compound by LC-MS/MS analysis; format: ADME, organism-based, Canis lupus familiaris; conditions: in vivo

# smiles.entry, bioavailability / %
rows = [
    ("CCOC(=O)N1CCC2(CC1)C[C@H](NC(=O)c1cccc3cn[nH]c13)c1cc(Br)ccc1O2", 0.2),
]

----------
assay: Clearance in monkey; type: ADME, Macaca mulatta; conditions: rhesus monkey, in vivo
quantity: clearance

# smiles.entry, measured.value
measured = [
    ("CCOC(=O)N1CCC2(CC1)C[C@H](NC(=O)c1cccc3cn[nH]c13)c1cc(Br)ccc1O2", "6.1 mL/min/kg"),
]
